Hey, just so you know, these numbers are from patent US7012090B1.

biological target: brain 5-HT2 receptors (Rattus norvegicus)
Sequence (P14842 whole entry): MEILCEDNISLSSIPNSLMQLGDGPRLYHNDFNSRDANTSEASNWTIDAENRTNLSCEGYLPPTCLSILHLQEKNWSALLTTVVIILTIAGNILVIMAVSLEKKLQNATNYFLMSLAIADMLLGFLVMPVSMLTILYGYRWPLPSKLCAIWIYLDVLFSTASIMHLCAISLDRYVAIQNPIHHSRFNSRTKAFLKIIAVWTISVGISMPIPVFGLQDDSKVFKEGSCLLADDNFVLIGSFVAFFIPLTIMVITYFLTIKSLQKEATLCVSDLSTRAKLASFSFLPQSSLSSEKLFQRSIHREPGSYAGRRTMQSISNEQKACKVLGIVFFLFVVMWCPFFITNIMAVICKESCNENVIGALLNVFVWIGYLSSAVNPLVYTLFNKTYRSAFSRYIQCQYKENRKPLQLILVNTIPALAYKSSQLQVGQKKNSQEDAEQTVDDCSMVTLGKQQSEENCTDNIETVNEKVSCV
EXPERIMENTAL_READOUT: IC50 (nM)
Numbers only, in nM.

Dear colleague, I am looking for the recorded IC50 of the following compound: COc1cc(C[C@@H](C)N)c(OC)cc1I [(R)-DOI, reference compound]
0.46

----------
target: 5-HT2 receptor (Rattus norvegicus, UniProt P14842); construct: [^3H]myo-inositol-labeled A7r5 rat vascular smooth muscle cells; endogenous in cells; experiment: 5-HT2 Functional Assay: Phosphoinositide (PI) Turnover Assay; settings: [3H]inositol phosphate production in A7r5 rat vascular smooth muscle cells
Sequence (P14842 whole entry): as above
Counter-ions that a name gives are not always drawn.
EXPERIMENTAL_READOUT: EC50 (nM)
One number for each entry, in nM.

Consider the following illustrative entries.
INSERT INTO results (compound, readout_units, val) VALUES
  ('CC(N)Cc1c[nH]c2ccc3c(c12)CCCO3.Cl (centres unmarked) [Example 3, hydrochloride]', 'nM', 116),
  ('COc1cc(C[C@@H](C)N)c(OC)cc1I [(R)-DOI, reference compound]', 'nM', 27.7),
  ('C[C@@H](N)Cc1c[nH]c2ccc3c(c12)CCCO3 [Example 4, hydrochloride]', 'nM', 111),
  ('CC(N)Cc1c[nH]c2ccc3c(c12)CC(O)CO3.Cl (centres unmarked) [Example 6, hydrochloride]', 'nM', 300);

Shift focus to the following entry.
Give its EC50 value. Item: CC(N)Cc1cn(C)c2ccc3c(c12)CCCO3 (centres unmarked) [Example 1, hydrochloride]
189

----------
Target: 5-HT2 receptor (Rattus norvegicus, UniProt P14842)
Construct: [^3H]myo-inositol-labeled A7r5 rat vascular smooth muscle cells; endogenous in cells; host or cells: A7r5 rat vascular smooth muscle cells
Assay: 5-HT2 Functional Assay: Phosphoinositide (PI) Turnover Assay
Assay type: cell-based
Settings: A7r5 cells, relative to 5-HT set at 100%; read-out: Efficacy (Emax, %)
Description: 5-HT2 Functional Assay: Phosphoinositide (PI) Turnover Assay The relative agonist activity of serotonergic compounds at the 5-HT2 receptor can be determined in vitro using the ability of the compounds to stimulate the production of [^3H]inositol phosphates in [^3H]myo-inositol-labeled A7r5 rat vascular smooth muscle cells by their ability to activate the enzyme phospholipase C. […]
Counter-ions that a name gives are not always drawn.
EXPERIMENTAL_READOUT: Emax
# do not omit the unit; it follows the number

A selection of reference data follows.
INSERT INTO assay_data (molecule, system_tested, val) VALUES
  ('CC(N)Cc1cn(C)c2ccc3c(c12)CCCO3 (stereo not shown) [Example 1, hydrochloride]', '5-HT2 receptor (Rattus norvegicus, UniProt P14842)', '119%'),
  ('CC(N)Cc1c[nH]c2ccc3c(c12)CCCO3.Cl (stereo not shown) [Example 3, hydrochloride]', '5-HT2 receptor (Rattus norvegicus, UniProt P14842)', '81%'),
  ('C[C@@H](N)Cc1c[nH]c2ccc3c(c12)CCCO3 [Example 4, hydrochloride]', '5-HT2 receptor (Rattus norvegicus, UniProt P14842)', '109%');

Attention now shifts to the item below.
Please provide the recorded Emax for CC(N)Cc1c[nH]c2ccc3c(c12)CC(O)CO3.Cl (stereo not shown) [Example 6, hydrochloride] , tested on 5-HT2 receptor (Rattus norvegicus, UniProt P14842).
92%
